Reported growth values follow for various compounds
test system: HCT-116 colon; assay: NCI-60 one-dose screen, 48 h (100 = growth as untreated, 0 = no growth, -100 = all killed); details: 10 µM unless noted
About 83,000 compounds went through this panel and 20% of them were active in at least one assay; those are over-represented in the sample as a whole.

COMPOUND	growth (%)
O=C(NCCCCNC(=O)OCc1ccc2c(Cl)cc(Cl)c(O)c2n1)OCc1ccc2c(Cl)cc(Cl)c(O)c2n1	7.49
CSc1nc2sc3c(c2c(=O)n1-c1ccc([N+](=O)[O-])cc1)CCCCC3	84.4
COCCNC(=O)c1ccc(-c2nc3ccc4[nH]ncc4c3c3c2CCCC3)cc1	13
COCCn1cc(-c2nc(-c3cc4cccnc4n3CCOC)cs2)c2cc(OC)ccc21	43
O=C(Nn1c2c(sc1=NCc1ccccc1)C(=O)c1ccccc1C2=O)c1cc2ccc1CCc1ccc(cc1)CC2	55.9
O=S(=O)(NCCCNc1nccc(-c2c(-c3ccc(F)c(O)c3)nc3occn23)n1)c1ccccc1	52.6
O=C1c2c(c3c4ccc(Br)cc4oc3c3[nH]c4ccccc4c23)C(=O)N1O	17.9
O=C(CCCCCCN1CC(=O)N2[C@H](c3cc(Br)cs3)c3[nH]c4ccccc4c3C[C@H]2C1=O)NO	13
CC(C)c1ccc(NC(=O)Nc2ccc(NC(=O)CCCC(=O)NOCc3ccccc3)cc2)cc1	93.4
COc1cc(N2C(=O)[C@H](O)C2c2ccc(SC)cc2)cc(OC)c1OC (some centres undefined)	1.16
CS(=O)(=O)Nc1cc(-c2ccc3ncnc(Nc4ccc5c(cnn5Cc5ccccn5)c4)c3c2)cnc1Cl	92.9
O=C(c1ccc(-c2nc(CSc3nc4ccccc4s3)no2)cc1)N1CCSCC1	49.8
O=C(N/N=C/c1ccc(F)cc1)c1ccc(C(F)(F)F)nc1Nc1cccc(C(F)(F)F)c1	10.1
CNc1nc(S(=O)c2ccc(C#N)cc2)nc2ccccc12 (centres undefined)	51.4
COc1ccc(OC)c(C(=O)/C=C/c2cc3c(c(OC)c2OC)OCO3)c1	43.6
N#Cc1cccc(F)c1	106
Cc1oc(-c2ccc(Cl)cc2)nc1/C=C/C(=O)c1ccccc1	99.5
Oc1c(Cl)cc(Cl)cc1/C=N/Nc1nnc(N/N=C/c2cc(Cl)cc(Cl)c2O)c2ccccc12	10
COc1ccc(C(=O)Nc2ncc(Cc3cccc(Cl)c3)s2)cc1OC	27.2
C#CCn1cnc2c(Nc3cccc(NC(=O)C=C)c3)ncnc21	85.1
CCS/C(Nc1ccccc1)=C(\C#N)C(=O)N/N=C/c1ccc(Cl)cc1Cl	17.5
CCCCNC(=O)Oc1ccc(/C(=C(/CC)Cc2ccccc2)c2ccc(OCCN3CCCCCC3)cc2)cc1	-76.3
Brc1c2c(c(Br)c3ccccc13)CCCC2	91.4
CCOC(=O)c1c(NC(=O)c2ccc(C(C)C)cc2)sc2c(CN(C)C)c(O)ccc12	4.82
C#CCOc1cccc(Nc2ncnc3ccc(NC(=O)CCl)cc23)c1	-51.3
Brc1ccc(-n2cc(-c3nn[nH]n3)c(-c3cccs3)n2)cc1	91.5
O=C(COc1ccc(-c2nc3ccccc3[nH]2)cc1)N=Nc1c(O)[nH]c2ccc(Cl)cc12	47.2
CN(C)CC(=O)Nc1ccc2ncnc(Nc3ccc(Oc4cccc(C(F)(F)F)c4)c(Cl)c3)c2c1	44.1
CCOC(=O)/C=C1\S/C(=N\Nc2cc(=O)[nH]c3ccc(Cl)cc23)N(c2ccccc2)C1=O	38.9
COP(=O)(OC)C(C)(C)CC(=O)CC(C#N)(C#N)C(C#N)C#N	92.4
COc1ccc(-c2nc(/C=C3\SC(=NCc4ccccc4)NC3=O)c3ccccn23)cc1	-97.2
O=C1C(Cl)=C(Nc2ccc(O)cc2)C(=O)N1Cc1ccc(Cl)cc1	30.9
CCCCOC(=O)OCc1cc(=O)c(O)co1	106
C=C1C(=O)O[C@H]2[C@H]1CC/C(COC(=O)CSCCSCC(=O)OC/C1=C/CC[C@@]3(C)O[C@H]3[C@H]3OC(=O)C(=C)[C@@H]3CC1)=C\CC[C@@]1(C)O[C@@H]21	-31.6
COC(=O)c1c2c(c(C)[n+]([O-])c1C)C(=O)C=C(NCc1ccc(Br)cc1)C2=O	-17.2
O=c1oc2c(cnc3ccccc32)cc1-c1ccsc1	99.7
Cc1ccc(Sc2nnc(/N=C3\C(=O)Nc4ccccc43)s2)cc1	104
COc1ccc(-c2cc(-c3ccc(Cl)cc3)c(C#N)c(=O)n2CCCCC(=O)Nc2ccccc2N)cc1	24.4
CC1(C)CC[C@]2(C(=O)O)CC[C@]3(C)C(=CC[C@@H]4[C@@]5(C)C/C(=C/O)C(=O)C(C)(C)[C@@H]5CC[C@]43C)[C@@H]2C1	12.7

---

system: OVCAR-3 ovarian; experiment: NCI-60 one-dose screen, 48 h (100 = growth as untreated, 0 = no growth, -100 = all killed); settings: 10 µM unless noted
The panel holds about 83,000 compounds, 20% with a hit somewhere; the sample as a whole holds those more often.
Reported growth values follow for various compounds
PARAMETER: growth (%)

> print(dat)
                                    compound     study.system  unit.spec  test.result
 1  CCCC(=O)NC(c1ccc2c(c1)OCO2)c1ccc2cccnc2c1O (centres undefined)  OVCAR-3 ovarian          %         36.9
 2  CCCCN[C@H]1CC[C@@]2(C)[C@@H](CC[C@@]3(C)[C@H]2[C@H](O)C[C@H]2/C(=C(\CCC=C(C)C)C(=O)OC)[C@@H](OC(C)=O)C[C@@]23C)[C@@H]1C  OVCAR-3 ovarian          %          106
 3  Cc1ccc(-c2csc(NC(=O)CN3CCN(c4cc5c(cc4F)c(=O)c(C(=O)O)cn5C4CC4)CC3)n2)cc1  OVCAR-3 ovarian          %         14.8
 4  CNc1nc(S(=O)c2ccc(C#N)cc2)nc2ccccc12 (centres undefined)  OVCAR-3 ovarian          %         53.4
 5  CCOc1nc(-c2ccccc2)cc2c(O)c(C(=O)NN)[nH]c(=O)c12  OVCAR-3 ovarian          %           79
 6  CSc1nnc(-c2cnn3c2NC(c2ccccc2)C3)n1-c1ccc(C(F)(F)F)cc1 (centres undefined)  OVCAR-3 ovarian          %         37.6
 7  CC1=C(CCC(C)N(C)Cc2ccc(OCCCN3CCCC3)cc2)C(C)(C)CCC1 (centres undefined)  OVCAR-3 ovarian          %         23.6
 8  C#CCOc1ccc2ncnc(Nc3cccc(NC(=O)C=C)c3)c2c1  OVCAR-3 ovarian          %         60.6
 9  C/C(=C(/c1ccc(Cl)cc1)c1ccc(OCCN2CCCC2)cc1)c1ccc(Cl)cc1  OVCAR-3 ovarian          %         88.3
10  CCOC(=O)c1c(C)nc2c(c1N)CC(=O)N2Cc1cc(F)cc(Cl)c1  OVCAR-3 ovarian          %         93.8
11  CCC(=C(c1ccc(OCCN2CCCC2)cc1)c1ccc(OCCN2CCCC2)cc1)c1ccc(Cl)cc1  OVCAR-3 ovarian          %        -57.6
12  C1=CN2CC(c3ccccc3)=NNC2c2ccccc21 (centres undefined)  OVCAR-3 ovarian          %         81.5
13  Nc1ncnc2c1N=C(c1ccc(Cl)cc1)CC(c1ccc3c(c1)OCO3)N2 (centres undefined)  OVCAR-3 ovarian          %         85.5
14  N#Cc1cccc(-c2c(-c3ccc4ccccc4c3)oc3ccccc3c2=O)c1  OVCAR-3 ovarian          %         40.2
15  CCN(CC)CCSc1nc(-c2ccccc2)c(C#N)c(=O)[nH]1  OVCAR-3 ovarian          %          116
16  COc1ccc2c(c1)[n+]([O-])c(C(=O)/C=C/C=C(\Cl)c1cc(OC)c(OC)c(OC)c1)c(C)[n+]2[O-]  OVCAR-3 ovarian          %           93
17  COC(=O)c1c2c(c(C)[n+]([O-])c1C)C(=O)C=C(NCc1ccc(OC)cc1)C2=O  OVCAR-3 ovarian          %        -40.5
18  COc1cc2oc(-c3cccc(NC(=O)c4cccc(Br)c4)c3)cc(=O)c2c(OC)c1OC  OVCAR-3 ovarian          %         66.5
19  CCCCN1C(=O)/C(=c2\sc3n(c2=O)C2C(NN=3)N(CC)C(=O)N2CC)c2ccccc21 (centres undefined)  OVCAR-3 ovarian          %        -31.5
20  COc1ccc(-c2nc3c(c(-c4ccccc4)nn3-c3ccccc3)c(-c3ccc(N4CCN(C)CC4)cc3)c2C#N)cc1  OVCAR-3 ovarian          %          103
21                         C1=C(N2CCCC2)CCC1  OVCAR-3 ovarian          %          106
22  Cc1ccc(-c2nc(N3CCNCC3)c3oc(-c4ccccc4)nc3n2)cc1  OVCAR-3 ovarian          %        -89.5
23    N#Cc1cnc(NCCc2ccncc2)nc1-n1cnc2ccccc21  OVCAR-3 ovarian          %         76.7
24      CN(CCOc1ccc(C#N)cc1)CCOc1ccc(C#N)cc1  OVCAR-3 ovarian          %         97.6
25       O=C1Nc2ccccc2[C@]12CC(c1ccccc1)=NN2  OVCAR-3 ovarian          %         27.7
26  CCN1CCN(Cc2cn(CC(=O)Nc3ccc4c(ccn4Cc4ccccc4)c3)nn2)CC1  OVCAR-3 ovarian          %          102
27  Fc1cc(F)cc(C(c2c[nH]c3ccccc23)c2c[nH]c3ccccc23)c1  OVCAR-3 ovarian          %          112
28  C=C(C)[C@@H]1CC[C@]2(C(=O)OC)CC[C@]3(C)[C@H](CC[C@@H]4[C@@]5(C)C/C(=C/NC(N)=S)C(=O)C(C)(C)[C@@H]5CC[C@]43C)[C@@H]12  OVCAR-3 ovarian          %         88.5
29  O=C(Cc1ccccc1)Nc1nc(O)c(/C=C2\C(=O)C=Cc3ccccc32)s1  OVCAR-3 ovarian          %          102
30  CCOC(=O)c1cc(C(=O)c2cc(OC)c(OC)c(OC)c2)n2ccc(-c3ccncc3)cc12  OVCAR-3 ovarian          %          109
31  O=C(Nc1cccnc1Nc1ccc(F)cc1)c1cn(Cc2cccc(Oc3ccccc3)c2)nn1  OVCAR-3 ovarian          %         71.9
32  O=C(O)CCCN1C(=O)/C(=C/C(Cl)=C/c2ccccc2)SC1=S  OVCAR-3 ovarian          %         13.6
33  O=C1c2cccc3cccc(c23)C(=O)N1N1C(=O)c2cccc3c(N4CCOCC4)ccc(c23)C1=O  OVCAR-3 ovarian          %          106
34             O=C(/C=C/c1cccs1)c1ccc(Cl)nc1  OVCAR-3 ovarian          %          116
35    O=c1oc2ccccc2cc1C1=NN=C(SCc2ccccc2)SC1  OVCAR-3 ovarian          %          103
36  COC(=O)c1c2c(c[n+]([O-])c1C)C(=O)C(NCc1ccccc1)=CC2=O  OVCAR-3 ovarian          %        -35.3
37  O=C(CN1C(=O)CCC1=O)Nc1ncc(Cc2ccc(F)cc2)s1  OVCAR-3 ovarian          %          103
38  Oc1c(Cl)cc(Cl)c2ccc(Cn3cc(-c4cc(C(F)(F)F)cc(C(F)(F)F)c4)nn3)nc12  OVCAR-3 ovarian          %        -4.28
39  OCCNCCCOc1ccc2ncnc(Nc3ccc(Oc4cccc(C(F)(F)F)c4)c(Cl)c3)c2c1  OVCAR-3 ovarian          %         3.15

Values were extracted from PubChem BioAssay (NCI).
